All figures here come from patent US20220380318A1.

System: Meloidogyne incognita
Assay: Meloidogyne incognita test (soil drench, gall formation after 21 days)
Type: in vivo
Conditions: 504 h, application rate 0.125 ppm, lettuce, read-out: nematicidal efficacy in % (formation of galls)
Please provide measured pest or weed control at 0.125 ppm for the entries that follow.
Write the value in % as a bare number.

[in] So what's the measured pest or weed control at 0.125 ppm for this one? O=C(NS(=O)(=O)c1cc(Cl)ccc1Cl)c1nc(Cl)n([C@H]2C[C@@H]2C(F)(F)F)c1Br (racemic)
[out] 90

[in] So what's the measured pest or weed control at 0.125 ppm for this one? COc1ccc(Cl)c(S(=O)(=O)NC(=O)c2nc(Cl)n([C@H]3C[C@@H]3C(F)(F)F)c2Br)c1 (racemic)
[out] 90

[in] So what's the measured pest or weed control at 0.125 ppm for this one? COc1ccc(Br)c(S(=O)(=O)NC(=O)c2nc(Br)n([C@H]3C[C@@H]3C(F)(F)F)c2Br)c1 (racemic)
[out] 100

[in] So what's the measured pest or weed control at 0.125 ppm for this one? CCOc1ccc(Cl)c(S(=O)(=O)NC(=O)c2nc(Br)n([C@H]3C[C@@H]3C(F)(F)F)c2Br)c1 (racemic)
[out] 90

* * *

Test system: Meloidogyne incognita
Test: Meloidogyne incognita test (MELGIN), comparison with prior art
Assay type: in vivo
Settings: 504 h, 0.03125 ppm, after 21 days
measuredAttribute: nematicidal efficacy (% gall reduction) at 0.03125 ppm (%)
Write the value in % as a bare number.

[in] So what's the measured nematicidal efficacy (% gall reduction) at 0.03125 ppm for this one? CCOc1ccc(Cl)c(S(=O)(=O)NC(=O)c2nc(Cl)n([C@H]3C[C@@H]3C(F)(F)F)c2Br)c1 (racemic)
[out] 97

[in] So what's the measured nematicidal efficacy (% gall reduction) at 0.03125 ppm for this one? COc1ccc(Cl)c(S(=O)(=O)NC(=O)c2nc(Br)n([C@H]3C[C@@H]3C(F)(F)F)c2Br)c1 (racemic)
[out] 92.5

[in] So what's the measured nematicidal efficacy (% gall reduction) at 0.03125 ppm for this one? COc1ccc(Cl)c(S(=O)(=O)NC(=O)c2nc(Cl)n([C@@H]3C[C@H]3C(F)(F)F)c2Cl)c1 [Ex. I-470, reference compound]
[out] 48

[in] So what's the measured nematicidal efficacy (% gall reduction) at 0.03125 ppm for this one? COc1ccc(Cl)c(S(=O)(=O)NC(=O)c2nc(Cl)n([C@H]3C[C@@H]3C(F)(F)F)c2Br)c1 (racemic)
[out] 95

[in] So what's the measured nematicidal efficacy (% gall reduction) at 0.03125 ppm for this one? CCOc1ccc(Cl)c(S(=O)(=O)NC(=O)c2nc(Cl)n([C@@H]3C[C@H]3C(F)(F)F)c2Cl)c1 [Ex. I-459, reference compound]
[out] 10

* * *

Tested on: Meloidogyne incognita
Test: Meloidogyne incognita test (soil drench, gall formation after 21 days)
Type: in vivo
Settings: 504 h, application rate 1 ppm, lettuce, read-out: nematicidal efficacy in % (formation of galls)
Procedure: Meloidogyne incognita Test Solvent: 7 parts by weight of dimethylformamide Emulsifier: 2.5 parts by weight of alkylaryl polyglycol ether To produce a suitable active ingredient formulation, 1 part by weight of active ingredient is mixed with the specified amounts of solvent and emulsifier, and the concentrate is diluted with water to the desired concentration, it being necessary to take account of the volume of soil which is drenched. […]
Please provide measured pest or weed control at 1 ppm for the entries that follow.
Write the value in % as a bare number.

[in] # get_value(readout= pest or weed control at 1 ppm, system= Meloidogyne incognita) for COc1ccc(Cl)c(S(=O)(=O)NC(=O)c2nc(Br)n([C@H]3C[C@@H]3C(F)(F)F)c2Br)c1 (racemic)
[out] 100

[in] # get_value(readout= pest or weed control at 1 ppm, system= Meloidogyne incognita) for CCOc1ccc(Cl)c(S(=O)(=O)NC(=O)c2nc(Cl)n([C@H]3C[C@@H]3C(F)(F)F)c2Br)c1 (racemic)
[out] 100

[in] # get_value(readout= pest or weed control at 1 ppm, system= Meloidogyne incognita) for O=C(NS(=O)(=O)c1ccccc1Cl)c1nc(Br)n([C@@H]2C[C@H]2C(F)(F)F)c1Cl (racemic)
[out] 80

* * *

Please provide measured pest or weed control at 0.125 ppm for the entries that follow.
System: Meloidogyne incognita
Experiment: Meloidogyne incognita test (soil drench, gall formation after 21 days)
Type: in vivo
Conditions: 504 h, application rate 0.125 ppm, lettuce, read-out: nematicidal efficacy in % (formation of galls)
Write the value in % as a bare number.

[in] So what's the measured pest or weed control at 0.125 ppm for this one? O=C(NS(=O)(=O)c1cc(OCC(F)F)ccc1Cl)c1nc(Br)n([C@@H]2C[C@H]2C(F)(F)F)c1Br (racemic)
[out] 100

[in] So what's the measured pest or weed control at 0.125 ppm for this one? Cc1ccccc1S(=O)(=O)NC(=O)c1nc(Cl)n([C@H]2C[C@@H]2C(F)(F)F)c1Br (racemic)
[out] 90

[in] So what's the measured pest or weed control at 0.125 ppm for this one? COc1ccc(Cl)c(S(=O)(=O)NC(=O)c2nc(Br)n([C@H]3C[C@@H]3C(F)(F)F)c2Br)c1 (racemic)
[out] 100

[in] So what's the measured pest or weed control at 0.125 ppm for this one? COc1ccc(Cl)c(S(=O)(=O)NC(=O)c2nc(Br)n([C@H]3C[C@@H]3C(F)(F)F)c2Cl)c1 (racemic)
[out] 100

[in] So what's the measured pest or weed control at 0.125 ppm for this one? CCOc1ccc(Cl)c(S(=O)(=O)NC(=O)c2nc(Cl)n([C@H]3C[C@@H]3C(F)(F)F)c2Br)c1 (racemic)
[out] 90

[in] So what's the measured pest or weed control at 0.125 ppm for this one? COc1ccc(Br)c(S(=O)(=O)NC(=O)c2nc(Cl)n([C@H]3C[C@@H]3C(F)(F)F)c2Br)c1 (racemic)
[out] 100

[in] So what's the measured pest or weed control at 0.125 ppm for this one? O=C(NS(=O)(=O)c1cc(OCC(F)F)ccc1Cl)c1nc(Cl)n([C@@H]2C[C@H]2C(F)(F)F)c1Br (racemic)
[out] 98
